# reverse-splicing fitness listing for each entry below
B1: Azoarcus group I ribozyme (parent)
chain: GUGCCUUGCGCCGGGAAACCACGCAAGGGAUGGUGUCAAAUUCGGCGAAACCUAAGCGCCCGCCCGGGCGUAUGGCAACGCCGAGCCAAGCUUCGGCGCCUGCGCCGAUGAAGGUGUAGAGACUAGACGGCACCCACCUAAGGCAAACGCUAUGGUGAAGGCAUAGUCCAGGGAGUGGCGAAAGUCACACAAACCGG

Variants of: B1
procedure text: reverse-splicing fitness (ratio to wild type); higher = more active; in vitro selection; Mg2+ level not given
# output: bare number, no unit

[[record]]
mutation_annotation = "C82A A111C A120G A145U C150G C169U U176G"
observable = "reverse-splicing fitness"
measured_result = 0.00542


I'd like to know its reverse-splicing fitness. The variant in question is C82A A111G A120C A145U C150U U176A
0.0145

Another variant to check: A111C A120C A145G C150U C169U
0.147

Another variant to check: C82A C150G C169G
0.00738

Another variant to check: A111U A120G A145U C150A C169G
0.0206

Another variant to check: C82U A111G A120C A145G C150G C169G
0.00678

Another variant to check: C82G A111G A120C A145C C150U C169U
0.0103

Another variant to check: C82U A111G A120C C169G U176A
0.0168

Another variant to check: A111C A120C A145G C150U C169G
0.00981

Another variant to check: A111G A145C C150A U176A
0.129
